- Test system: E. coli
- Protocol details: AK assay 384-well format, Prestwick library screening
- Assay type: cell-based, Escherichia coli
- Test settings: Escherichia coli, 3 h; planktonic E. coli; 50 μM final drug concentration; cutoff for positive-scoring molecules 3-fold increase; read-out: AK-based Prestwick Library Screening Results, E. coli (increase in extracellular AK activity)
Where a name gives a salt, the structure may show the parent alone.
Rule: fold induction at 50 µM of 0.9 or more gives satisfied; anything lower gives not satisfied.

Could you verify whether the entry CCCOc1ccccc1-c1nc2nn[nH]c2c(=O)[nH]1 shows fold induction at 50 µM of no less than 0.9?
not satisfied

Next compound up: CN1C(=O)OC(C)(C)C1=O
satisfied

Next compound up: Nc1c(Br)cc(Br)cc1CN[C@H]1CC[C@H](O)CC1 [Ambroxol hydrochloride]
satisfied

Next compound up: O=C(/C=C/c1ccc(O)c(O)c1)O[C@@H]1C[C@](O)(C(=O)O)C[C@@H](O)[C@H]1O
not satisfied

Next compound up: CCOC(=O)Oc1c(OC)cc(C(=O)O[C@@H]2C[C@@H]3CN4CCc5c([nH]c6cc(OC)ccc56)[C@H]4C[C@@H]3[C@H](C(=O)OC)[C@H]2OC)cc1OC
not satisfied

Next compound up: CCc1cccc(CC)c1NC(=O)CN(CC(=O)O)CC(=O)O
satisfied

Next compound up: Cc1noc(NS(=O)(=O)c2ccc(N)cc2)c1C
not satisfied

Next compound up: O=c1cc(-c2ccc(O)cc2)oc2cc(O)cc(O)c12
not satisfied

Next compound up: COc1ccc2cc3[n+](cc2c1OC)CCc1cc2c(cc1-3)OCO2 [Berberine chloride]
satisfied

Next compound up: Cc1cnc(NC(=O)C2=C(O)c3ccccc3S(=O)(=O)N2C)s1
satisfied

Next compound up: CCN[C@H]1CN(CCCOC)S(=O)(=O)c2sc(S(N)(=O)=O)cc21 [Brinzolamide]
satisfied

Next compound up: CCCNCC(O)COc1ccccc1C(=O)CCc1ccccc1 (centres unmarked) [Propafenone hydrochloride]
satisfied

* * *

- Tested on: E. faecium
- Protocol details: AK assay 384-well format, Prestwick library screening
- Format: cell-based, Enterococcus faecium
- Test settings: Enterococcus faecium, 3 h; 50 μM final drug concentration; cutoff for positive-scoring molecules 3-fold increase; read-out: AK-based Prestwick Library Screening Results, E. faecium (fold increase in extracellular AK activity)
Counter-ions that a name gives are not always drawn.
Measure: fold induction at 50 µM
Number only, please.

Request the reported fold induction at 50 µM associated with O=C(NCC(O)CO)c1c(I)c(C(=O)NCC(O)CO)c(I)c(N(CCO)C(=O)CO)c1I (stereo not drawn)
1

Next compound up: Cc1ccnc(NS(=O)(=O)c2ccc(N)cc2)n1
1

Next compound up: CCCCC(CC)CNC(=N)NC(=N)NCCCCCCNC(=N)NC(=N)NCC(CC)CCCC (stereo not drawn) [Alexidine dihydrochloride]
7.4

* * *

- Test system: A. baumannii strain 98-37-09
- Protocol details: AK assay 384-well format, Prestwick library screening
- Assay type: cell-based, Acinetobacter baumannii
- Test settings: Acinetobacter baumannii, 983709, 3 h; 50 μM final drug concentration; 384-well format; cutoff for positive-scoring molecules 3-fold increase; read-out: AK-based Prestwick Library Screening Results, A. baumannii (increase in extracellular AK activity)
Structures can show the parent of a compound that is named as a salt.
Measure: fold induction at 50 µM
Number only, please.

Item CC1=C(/C=C/C(C)=C/C=C/C(C)=C\C(=O)O)C(C)(C)CCC1 [Isotretinoin] with A. baumannii strain 98-37-09 - fold induction at 50 µM?
0.7

Next molecule up: CC[C@@H](CO)NCCN[C@@H](CC)CO [Ethambutol dihydrochloride]
0.8

Next molecule up: C[C@H](CS)C(=O)N1CCC[C@H]1C(=O)O [Captopril]
0.8

Next molecule up: CC(=O)Nc1nnc(S(N)(=O)=O)s1 [Acetazolamide]
0.4

Next molecule up: Cc1ccc(/C(=C\CN2CCCC2)c2ccccn2)cc1 [Triprolidine hydrochloride]
0.9

Next molecule up: O=C(Nc1ccc([N+](=O)[O-])cc1Cl)c1cc(Cl)ccc1O [Niclosamide]
0.2

Next molecule up: CC(=O)S[C@@H]1CC2=CC(=O)CC[C@]2(C)[C@H]2CC[C@@]3(C)[C@@H](CC[C@@]34CCC(=O)O4)[C@H]12 [Spironolactone]
1.1

Next molecule up: C1CCc2nnnn2CC1 [Pentylenetetrazole]
0.6

Next molecule up: CN1CCN2c3ccccc3Cc3ccccc3C2C1 (stereo not shown) [Mianserine hydrochloride]
0.8

Next molecule up: C[C@H](N)[C@H](O)c1cccc(O)c1 [Metaraminol bitartrate]
0.9

Next molecule up: COc1ccc2c(c1)c(CC(=O)O)c(C)n2C(=O)c1ccc(Cl)cc1 [Indomethacin]
1

Next molecule up: Clc1ccccc1CN1CCc2sccc2C1 [Ticlopidine hydrochloride]
1.1

Next molecule up: N[C@@H](Cc1ccc(O)c(O)c1)C(=O)O [Levodopa]
0.7

Next molecule up: O=C1CN(/N=C/c2ccc([N+](=O)[O-])o2)C(=O)N1 [Nitrofurantoin]
0.5

Next molecule up: CCCc1ncc(C[n+]2ccccc2C)c(N)n1 [Amprolium hydrochloride]
0.5

Next molecule up: O=C(O)COC(=O)Cc1ccccc1Nc1c(Cl)cccc1Cl [Aceclofenac]
0.7

Next molecule up: COc1ccc(OC)c(C(O)CNC(=O)CN)c1 (stereo not shown) [Midodrine hydrochloride]
0.9

Next molecule up: CCCNC(C)C(=O)Nc1ccccc1C (stereo not shown) [Prilocaine hydrochloride]
0.9

Next molecule up: c1ccc2c(CC3=NCCN3)cccc2c1 [Naphazoline hydrochloride]
1.1

* * *

I'd be grateful if you could share measured fold induction at 50 µM for these entries.
- Tested on: E. coli
- Protocol details: AK assay 384-well format, Prestwick library screening
- Assay type: cell-based, Escherichia coli
- Test settings: Escherichia coli, 3 h; 50 μM final drug concentration; planktonic; cutoff for positive 3-fold increase; read-out: AK-based Prestwick Library Screening Results, E. coli (fold increase in extracellular AK activity)
Structures can show the parent of a compound that is named as a salt.
Number only, please.

Request the reported fold induction at 50 µM associated with CCCCC[C@H](O)/C=C/[C@@H]1[C@@H](C/C=C\CCCC(=O)O)[C@@H](O)C[C@H]1O
1

Next compound up: CCCN(CCC)S(=O)(=O)c1ccc(C(=O)O)cc1
1.4

Next compound up: C[C@@H]1O[C@@H](O[C@H]2[C@H](Oc3cc(O)c4c(c3)O[C@H](c3ccc(O)cc3)CC4=O)O[C@H](CO)[C@@H](O)[C@@H]2O)[C@H](O)[C@H](O)[C@H]1O [Naringin hydrate]
1.3

Next compound up: CN1CCC(=C2c3ccccc3CC(=O)c3sccc32)CC1 [Ketotifen fumarate]
1.3

Next compound up: CCCCc1cc2ccccc2c(OCCN(C)C)n1 [Dimethisoquin hydrochloride]
1.3

Next compound up: CO[C@H]1/C=C/O[C@@]2(C)Oc3c(C)c(O)c4c(O)c(c(/C=N/N5CCN(C)CC5)c(O)c4c3C2=O)NC(=O)/C(C)=C\C=C\[C@H](C)[C@H](O)[C@@H](C)[C@@H](O)[C@@H](C)[C@H](OC(C)=O)[C@@H]1C
1.3

Next compound up: C[C@H]1[C@H]2CC[C@H]3[C@@H]4CC=C5C[C@@H](N(C)C)CC[C@]5(C)[C@H]4CC[C@]23CN1C
1.5

* * *

- Test system: K. pneumoniae
- Protocol details: AK assay 384-well format, Prestwick library screening
- Assay type: cell-based, Klebsiella pneumoniae
- Test settings: Klebsiella pneumoniae, 3 h; planktonic K. pneumoniae; 50 μM final drug concentration; positive cutoff 3-fold increase; read-out: AK-based Prestwick library screening result, K. pneumoniae (fold increase in extracellular AK activity)
Structures can show the parent of a compound that is named as a salt.
Rule: fold induction at 50 µM of 0.8 or more gives MET; anything lower gives NOT MET.

Could you verify whether the entry CCOC1O[C@H]([C@@H](COCc2ccccc2)OCc2ccccc2)[C@H](OCc2ccccc2)[C@H]1O (stereo partly drawn) [Tribenoside] shows fold induction at 50 µM of no less than 0.8?
MET

Next molecule up: CN(C/C=C/c1ccccc1)Cc1cccc2ccccc12 [Naftifine hydrochloride]
NOT MET

Next molecule up: CCC(=O)O[C@]1(C(=O)SCF)[C@H](C)C[C@H]2[C@@H]3C[C@H](F)C4=CC(=O)C=C[C@]4(C)[C@@]3(F)[C@@H](O)C[C@@]21C [Fluticasone propionate]
NOT MET

Next molecule up: C[C@@H]1C[C@H]2[C@@H]3C[C@H](F)C4=CC(=O)C=C[C@]4(C)[C@@]3(Cl)[C@@H](O)C[C@]2(C)[C@H]1C(=O)COC(=O)C(C)(C)C [Clocortolone pivalate]
MET

Next molecule up: Cn1c([N+](=O)[O-])cnc1COC(N)=O [Ronidazole]
MET

Next molecule up: CCOC(=O)[C@H](CCc1ccccc1)N[C@@H](C)C(=O)N1[C@H](C(=O)O)C[C@@H]2CCC[C@@H]21 [Ramipril]
MET

From: patent US10004701B2
